Tested on: α-isomaltosylglucosaccharide-forming enzyme
assay: Action on saccharides (substrates), Enzyme of Strain A19
Type: biochemical, Arthrobacter globiformis A19
Parameters: key: −: it showed no change; +: it showed a slight reduction of the color spot of the substrate and the formation of other reaction product; ++: it showed a high reduction of the color spot of the substrate and the formation of other reaction product; +++: it showed a substantial disappearance of the substrate spot and the formation of other reaction product
experimentalParameters: two units/g substrate, substrate 2% (w/v), 30° C., pH 8.4, 24 hours, TLC
quantityKind: Enzymatic action, Enzyme of Strain A19

INSERT INTO assay_data (compound, reportedmeasurement) VALUES
  ('OC[C@H]1O[C@H](O[C@H]2[C@H](O)[C@@H](O)[C@@H](OC[C@H]3OC(O)[C@H](O)[C@@H](O)[C@@H]3O)O[C@@H]2CO)[C@H](O)[C@@H](O)[C@@H]1O (some centres unmarked)', '++'),
  ('OC[C@@H](O)[C@@H](O[C@H]1O[C@H](CO)[C@@H](O[C@H]2O[C@H](CO)[C@@H](O)[C@H](O)[C@H]2O)[C@H](O)[C@H]1O)[C@H](O)[C@@H](O)CO', '+'),
  ('OC[C@H]1O[C@H](OC[C@H]2O[C@H](OC[C@H]3OC(O)[C@H](O)[C@@H](O)[C@@H]3O)[C@H](O)[C@@H](O)[C@@H]2O)[C@H](O)[C@@H](O)[C@@H]1O (some centres unmarked)', '−'),
  ('OC[C@H]1O[C@@](CO)(O[C@H]2O[C@H](CO)[C@@H](O[C@H]3O[C@H](CO)[C@@H](O)[C@H](O)[C@H]3O)[C@H](O)[C@H]2O)[C@@H](O)[C@@H]1O', '+');

Next compound, Enzymatic action, Enzyme of Strain A19 to be filled in.
Looking for the measured Enzymatic action, Enzyme of Strain A19 of OC[C@H]1O[C@@H](O[C@H]2[C@H](O)[C@@H](O)C(O)O[C@@H]2CO)[C@H](O)[C@@H](O)[C@H]1O (some centres unmarked) , can you help?
−

From: patent US7811797B2
